We begin with a simple list: items and their reported peptide exchange yield.
- Study system: T1, HLA-B*44:05 (human)
- T1 construct: also called peptide-receptive MHC class I molecule
- Measurement protocol: UV peptide exchange, anti-b2m ELISA
Measured parameter: peptide exchange yield

• QEISAHRTEF = 50 to 75%
• EELRMLSF = 20 to 50%
• EEHSSKLQTSL = > 75%
• EDASLMGLY = 20 to 50%
• LEEPMPFFY = 10 to 20%
• TEFAVKLKI = 50 to 75%
• ALEEGGGYIF = 10 to 20%
• AEFVPKADLL = 50 to 75%
• NEAEWQEIL = 50 to 75%
• EEGPSVPKIY = 20 to 50%
• AEALVDGKWQEF = 50 to 75%
• QEIGQKTSV = 50 to 75%
• SETAVVNVTY = > 75%
• TELADLDAAW = > 75%
• TENPKKFKI = 50 to 75%
• LEYEAPKLY = 20 to 50%
